Ref: the supplement of paper PMC9112550

Test system: Escherichia coli TOP10;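 further: peptides expressed intracellularly from a pBAD plasmid library in pooled LB shake-flask culture, induced with 0.3% L-arabinose, DNA abundance read by NGS, three biological replicates, DESeq2 with apeglm shrinkage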
Experiment: shrunken log2 fold change of peptide-encoding DNA abundance (4.5 h post-induction vs induction); higher = less antimicrobial activity (less host growth inhibition)
Conditions: time post-induction: 4.5 h; library: site-saturation at positions 5, 18, 19, 20
Bucketed by reported shrunken log2 fold change, buckets being low: < -0.1; moderate: ≥ -0.1 and < 0.2; high: ≥ 0.2

Solved cases (2 shown):
* RRIRNRPPRLPRPRPRPRVRPRP | high
* RRIRIRPPRLPRPRPRPIMFPRP | low

Field: class (shrunken log2 fold change) — entry: RRIRERPPRLPRPRPRPVENPRP moderate

Field: class (shrunken log2 fold change) — entry: RRIRARPPRLPRPRPRPWGNPRP moderate

Field: class (shrunken log2 fold change) — entry: RRIRARPPRLPRPRPRPAQQPRP moderate

Field: class (shrunken log2 fold change) — entry: RRIRPRPPRLPRPRPRPFHIPRP low

Field: class (shrunken log2 fold change) — entry: RRIRHRPPRLPRPRPRPKKCPRP low

Field: class (shrunken log2 fold change) — entry: RRIRNRPPRLPRPRPRPGWGPRP high

Field: class (shrunken log2 fold change) — entry: RRIRFRPPRLPRPRPRPIDQPRP low

Field: class (shrunken log2 fold change) — entry: RRIRMRPPRLPRPRPRPPAAPRP high

Field: class (shrunken log2 fold change) — entry: RRIRKRPPRLPRPRPRPGRFPRP high
